Data origin, for the record: PubChem BioAssay AID588405

# assay_details: inhibition of PEG-3 promoter activity – cell-based, HeLa, luciferase luminescence, primary screen (AID 588405)
# assay_conditions: HeLa PEG-Prom luciferase reporter, overnight, at 20 µM
Screen size: about 360,000 compounds; about 6,200 (1.7%) were called active.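 Rule for the calls: active = inhibition of at least 50% at 20 µM; inactive = the rest.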 This is one part of a sample in which actives are shown more often than they occur.
Assign a class; possible classes are 1.0 = active, 0.0 = inactive

(Q) // return assay outcome for COc1ccccc1-n1nnnc1SCC(=O)NC(=O)Cc1ccccc1
(A) 0.0

(Q) Which outcome was assigned to O=C(C1=C(O)C(=O)N(CCOCCO)C1c1ccccn1)c1cccs1 (stereo not given) in this test?
(A) 0.0

(Q) Could you please tell me the result logged for CC1(C(=O)NS(=O)(=O)c2cccc(F)c2)CCN1C(=O)Cc1ccc(Cl)cc1Cl (stereo not given) in this assay?
(A) 0.0

(Q) Tell me the recorded outcome of this test for NS(=O)(=O)c1ccc(N=Nc2c(O)[nH]c3ccc(Br)cc23)cc1 .
(A) 1.0

(Q) Could you please tell me the result logged for O=C(COc1ccc2ccccc2c1)N1CCN(C(=O)c2cccs2)CC1 in this assay?
(A) 0.0

(Q) Called result for COc1ccc(NC(=O)c2cc(=O)[nH]c3ccccc23)cc1S(=O)(=O)N1CCOCC1
(A) 0.0

(Q) What call does the record list for COc1ccccc1-n1nnnc1S(=O)(=O)Cc1ccc(Cl)cc1 ?
(A) 1.0

(Q) Which outcome did this test record for the molecule CN1CCN(CCCCOc2ccccc2-c2ccccc2)CC1 ?
(A) 0.0

(Q) Check the results log: what was the call for CC1(C(=O)NS(=O)(=O)c2cccc(F)c2)CCN1C(=O)c1cccc2ccccc12 (stereo not given) ?
(A) 0.0

(Q) Please let me know the test result on file for CC(C)(C)S(=O)N1Cc2cc(C(=O)NCCCN3CCOCC3)nc(-c3cccc(-c4cc5ccccc5o4)c3)c2[C@H]1CCO (stereo not given in full) .
(A) 0.0
